assay endpoint: melting point

Record excerpt, results attached:
• COc1cc(OC)c(C23CC4CC(CC(C4)C2)C3)cc1C(=O)O = 213 to 214 °C
• Cn1cc(C2CCC(=O)C2)c2cc(C#N)ccc21 (centres undefined) = 167 to 168 °C
• CC(C)N(CCCNC(=O)Cn1ncc(-c2ccccc2)c1-c1ccccc1)C(C)C = 83 to 84 °C
• CN1C(=O)C(c2ccccc2)(c2ccncc2)N=C1N (centres undefined) = 154 to 155 °C
• CCc1nc(C#N)c(N2CCN(c3ccccc3)CC2)nc1C = 99 to 101 °C
• Cc1ccc(C)n1-c1c(SC(F)(F)F)c(C#N)nn1-c1c(Cl)cc(C(F)(F)F)cc1Cl = 142 to 144 °C
• CCOC(=O)Cn1c2c(c3ccc(Cl)c(Cl)c31)CCN(C(=O)OC(C)(C)C)CC2 = 132 to 135 °C
• CC(C)c1ccc(-c2nc(-c3cccc(C(=O)O)c3)ns2)cc1 = 165 to 167 °C

API: the following record is the query input.
Qu. Quickly give me recorded melting point for "CCS(=O)(=O)c1cc(OCCCCCCc2cccc(OCCCC(=O)O)c2CCC(=O)O)cc(-c2ccc3c(c2)OCO3)c1"
Ans. 134 to 135 °C
